These data points were gathered from paper PMC7861550.

Listed variants paired with reported ratio to parent
B1: unnamed (parent)
chain: MDIDPYKEFGATVELLSFLPSDFFPSVRDLLDTASALYREALESPEHCSPHHTALRQAILCWGELMTLATWVGVNLEDPASRDLVVSYVNTNMGLKFRQLLWFHISCLTFGRETVIEYLVSFGVWIRTPPAYRPPNAPILSTLPETTVVRRRGRSPRRRTPSPRRRRSQSPRRRRSQSRESQC

- Variants of: B1
- assay comment: capsid assembly (Ca assem)
- applied conditions: with partner chain of the complex shown
Response field accepts a number only; no unit should be typed.

ratio to parent for chain 1 S141R ?
1.16

// query ratio to parent value for entry chain 1 S141D
1.11

GET /values?readout=ratio to parent&item= chain 1 T146D T147D
1.06
